- Test: ATG_RORE_CIS: Attagene CIS-FACTORIAL HepG2 Assay for human RAR-related Orphan Receptor Element (RORE) (AID 2282959)
- Particulars: HepG2 Attagene cis-factorial RORE reporter, mRNA; actives raise or lower the signal
The source made the active and inactive calls. The calls were made as follows: active = hit-call score of the fitted dose curve at least 0.9, where 1 is the maximum; inactive = score below 0.9.
Reported endpoint: outcome

// known answers, use as guide
CCC(=O)C=Cc1ccc(OC)cc1	inactive
CCOC=O	inactive
CCc1ccccc1O	inactive
O=C(F)C(F)(F)C(F)(F)C(F)(F)C(=O)F	inactive
Cc1ccc(C)c(S(=O)(=O)O)c1	inactive

(Q) Tell us which outcome value is on record for CN(CCO)S(=O)(=O)C(F)(F)C(F)(F)C(F)(F)C(F)(F)C(F)(F)C(F)(F)C(F)(F)C(F)(F)F
(A) inactive

(Q) Tell us which outcome value is on record for CCCCCCCCCCCC(=O)O
(A) inactive

---

- Read-out: Lipoprotein lipase (LPL), LPL (gene 4023)
- Test: LTEA_HepaRG_LPL: Life Technologies and Expression Analysis (LTEA) Assay for Lipoprotein lipase (LPL) using HepaRG (AID 2283515)
- Particulars: mRNA level, 48 h; actives raise or lower the signal
The source made the active and inactive calls. Rule for the calls: active = hit-call score of the fitted dose curve at least 0.9, where 1 is the maximum; inactive = score below 0.9.
Parameter call: string, one of Y (active), N (inactive)

Solved cases (6 shown):
Cc1[nH]nc2c1N=C(c1ccccc1Cl)c1cc([N+](=O)[O-])ccc1N2	Y
CCCCC=O	N
O=C1NS(=O)(=O)c2ccccc21	N
CS(=O)(=O)c1ccc([C@@H](CC2CCCC2)C(=O)Nc2cnccn2)cc1Cl	N
CN(Cc1cnc2nc(N)nc(N)c2n1)c1ccc(C(=O)N[C@@H](CCC(=O)O)C(=O)O)cc1	N
O=C(c1ccccc1)c1ccccc1	N

(Q) Call for entry N=C(N)c1ccc(OCCCCCOc2ccc(C(=N)N)cc2)cc1 :
(A) Y

(Q) Call for entry CCCCCCCCCCCCCCC :
(A) N

(Q) Call for entry O=C(CCCN1CCC(O)(c2ccc(Cl)cc2)CC1)c1ccc(F)cc1 :
(A) Y

(Q) Call for entry CCC(C)c1ccccc1O (stereo unspecified) :
(A) N

(Q) Call for entry CN(C)CCOC(c1ccccc1)c1ccccc1 :
(A) Y

---

- Test: APR_HepG2_MitoticArrest_72hr: Apredica 72-hour HepG2 Assay for Mitotic Arrest (AID 2282918)
- Particulars: high-content imaging, actives raise or lower the signal
The source made the active and inactive calls. The calls were made as follows: active = hit-call score of the fitted dose curve at least 0.9, where 1 is the maximum; inactive = score below 0.9.
Reported endpoint: AC50

CCCCc1oc2ccccc2c1C(=O)c1cc(I)c(OCCN(CC)CC)c(I)c1	8.51 µM (active)
CN(Cc1cnc2nc(N)nc(N)c2n1)c1ccc(C(=O)N[C@@H](CCC(=O)O)C(=O)O)cc1	inactive
CCCCCCCCCCCCCCC	inactive
O=C(c1ccccc1)c1ccccc1	inactive

Moving on to another molecule below.
(Q) Tell us which AC50 value is on record for N=C(N)c1ccc(OCCCCCOc2ccc(C(=N)N)cc2)cc1
(A) 21.6 µM (active)

---

- Test: ATG_MRE_CIS: Attagene CIS-FACTORIAL HepG2 Assay for human Metal Responsive Element (MRE) (AID 2282954)
- Particulars: HepG2 MRE cis-reporter transcription, Attagene multiplex; actives raise or lower the signal
Calls of active or inactive are those of the source. How the source made its calls: active means hit-call score of the fitted dose curve at least 0.9, where 1 is the maximum; inactive means score below 0.9.
Parameter call: string, one of 1 (active), -1 (inactive)

Solved cases (6 shown):
CCCCCCc1ccc(N)cc1	-1
Cc1cncc(C)c1	-1
FC1(F)C=CC(F)(F)C1(F)F	-1
Cc1cc(=O)oc2cc(O)ccc12	-1
FC(F)(F)N1C(F)(F)C(F)(F)OC(F)(F)C1(F)F	-1
c1ccc2c(c1)CCC2	-1

(Q) Call for entry O=C1OC(=O)c2cc(-c3ccc4c(c3)C(=O)OC4=O)ccc21 :
(A) -1

(Q) Call for entry O=CC(F)(F)C(F)(F)C(F)(F)C(F)F :
(A) -1

(Q) Call for entry FC(OC(F)(F)C(F)(F)C(F)(F)F)C(F)(F)F (centres undefined) :
(A) -1

Reference for the values: PubChem BioAssay (EPA / NIEHS)
